Tested on: LYPLA2
Assay Summary: serine hydrolase off-target inhibition in mouse brain, late-stage follow-up, selectivity assay for DAGLb inhibitor project, biochemical, gel-based competitive ABPP, mouse brain membrane, set 1 (AID 602311)
Condition: gel-based competitive ABPP fluorescence, at 10 µM, hits give high values
Quantity Measured: inhibition (%)
One number for each entry, in %.

Batch request: inhibition for each of the following molecules.
1. O=C(N1CCCCC1Cc1ccccc1)n1cc(-c2cc(F)cc(F)c2)nn1 (configuration not stated)
2. O=C(N1CCCCC1Cc1ccccc1)n1cc(-c2ccc(-c3ccc4c(c3)OCO4)cc2)nn1 (configuration not stated)
3. O=C(N(CCc1ccccc1)Cc1ccco1)n1cc(-c2ccc(OC(F)(F)F)cc2)nn1

RESULT:
1: 50; 2: 0; 3: 0

Batch request: inhibition for each of the following molecules.
1. O=C(N1CCCCC1Cc1ccccc1)n1cc(-c2ccc(-c3ccc(OC(F)(F)F)cc3)cc2)nn1 (configuration not stated)
2. O=C(N1CCCCC1Cc1ccccc1)n1cc(-c2ccc(-c3ccc(C(F)(F)F)cc3)cc2)nn1 (configuration not stated)
3. O=C(N1CCCCC1Cc1ccccc1)n1cc(-c2ccc(-c3ccoc3)cc2)nn1 (configuration not stated)
4. O=C(N1CCCCC1Cc1ccccc1)n1ncc(C(O)(c2ccccc2)c2ccccc2)n1 (configuration not stated)
5. O=C(N1CCCCC1Cc1ccccc1)n1cc(-c2ccc(-c3ccccc3C(F)(F)F)cc2)nn1 (configuration not stated)
6. O=C(N1CCCCC1Cc1ccccc1)n1cc(-c2ccc(-c3ccccc3Cl)cc2)nn1 (configuration not stated)

RESULT:
1: 0; 2: 0; 3: 0; 4: 0; 5: 0; 6: 0

Batch request: inhibition for each of the following molecules.
1. O=C(N1CCCCC1Cc1ccccc1)n1cc(-c2cccc(-c3ccccc3)c2)nn1 (configuration not stated)
2. O=C(N1CCCCC1Cc1ccccc1)n1cc(-c2ccc(-c3cccc(C(F)(F)F)c3)cc2)nn1 (configuration not stated)
3. O=C(c1ccc(-c2cn(C(=O)N3CCCCC3Cc3ccccc3)nn2)cc1)N1CCCCC1 (configuration not stated)
4. O=C(N1CCCCC1Cc1ccccc1)n1cc(-c2ccc(Br)cc2)nn1 (configuration not stated)
5. O=C(N1CCCCC1Cc1ccccc1)n1cc(-c2ccc(-c3ccccc3OC(F)(F)F)cc2)nn1 (configuration not stated)
6. Cc1ccccc1-c1ccc(-c2cn(C(=O)N3CCCCC3Cc3ccccc3)nn2)cc1 (configuration not stated)

RESULT:
0
0
25
0
0
0

Batch request: inhibition for each of the following molecules.
1. O=C(c1ccc(-c2ccc(-c3cn(C(=O)N4CCCCC4Cc4ccccc4)nn3)cc2)cc1)N1CCCCC1 (configuration not stated)
2. O=C(N1CCCCC1Cc1ccccc1)n1cc(-c2ccc(-c3ccccc3CO)cc2)nn1 (configuration not stated)

RESULT:
1. 0
2. 20

---

Test system: KIAA1363
Assay Summary: serine hydrolase off-target inhibition in mouse brain, late-stage follow-up, selectivity assay for DAGLb inhibitor project, biochemical, gel-based competitive ABPP, mouse brain membrane, set 1 (AID 602311)
Condition: gel-based competitive ABPP fluorescence, at 10 µM, hits give high values
Quantity Measured: inhibition (%)
One number for each entry, in %.

O=C(N1CCCCC1Cc1ccccc1)n1cc(-c2ccc(-c3ccccc3)cc2)nn1 (stereo not given) : 0
O=C(c1ccc(-c2ccc(-c3cn(C(=O)N4CCCCC4Cc4ccccc4)nn3)cc2)cc1)N1CCCCC1 (stereo not given) : 10
O=C(N1CCCCC1Cc1ccccc1)n1cc(-c2ccc(Br)cc2)nn1 (stereo not given) : 0
O=C(N1CCCCC1Cc1ccccc1)n1ncc(C(O)(c2ccccc2)c2ccccc2)n1 (stereo not given) : 0

Alright, here's another molecule for you.
QUERY: Quick one: inhibition of O=C(N1CCCCC1Cc1ccccc1)n1cc(-c2ccc(-c3ccccc3C(F)(F)F)cc2)nn1 (stereo not given) ?
RESULT: 0
